Numbers sourced from paper PMC4787775.

Substrate: Cc1c[nH]c(=O)[nH]c1=O
experiment_notes: purified protein
Type: biochemical, Neurospora crassa
run_conditions: 1 mM α-KG, 0.2 mM (NH4)2Fe(SO4)2, 0.2 mM ascorbic acid, 100 mM Hepes pH 7.5, 25 °C
measured_property: kcat/Km
Respond with the figure and its unit, in that order.

(Q) I am curious: what kcat/Km value has been reported for NcT7H (thymine-7-hydroxylase) (Neurospora crassa OR74A; Y217A) (protein, full length (residues 1-333), C-terminal His6-tag, pET-28a, expressed in E. coli BL21(DE3); Ni-NTA and gel filtration, tag removal not mentioned) MEKAAVNEDGLVIPLIDFSKFLEGDETLKLETAKAILHGFQTAGFIYLKNIPIQPDFREHVFNTSAKFFKLPKEKKLEVGWTTPEANRGYSAPGREKVTQLTDPAEIEKIRSAAPDIKESYEIGREDEPGHPNPWPAEQDDLVGFKSTMNNFFDQCKALHIEVMRAIAVGMGIDANYFDSFVDVGDNILRLLHYPAVKSEVFKINPGQVRAGEHTDAGSITLLFQDSRGGLQVKSPNGQFIDATPIENTVVVNAGDLLARWSNDTIKSTVHRVVEPPKQEDVHPPRYSIAYFCNPNHKSYIEAIPGTYAAESERKYEGINSGKYLVQRLAATY ?
(A) 167 M⁻¹ s⁻¹
